- SYSTEM_UNDER_TEST: CXCR3 (Homo sapiens, UniProt P49682)
- Sequence (P49682 whole entry): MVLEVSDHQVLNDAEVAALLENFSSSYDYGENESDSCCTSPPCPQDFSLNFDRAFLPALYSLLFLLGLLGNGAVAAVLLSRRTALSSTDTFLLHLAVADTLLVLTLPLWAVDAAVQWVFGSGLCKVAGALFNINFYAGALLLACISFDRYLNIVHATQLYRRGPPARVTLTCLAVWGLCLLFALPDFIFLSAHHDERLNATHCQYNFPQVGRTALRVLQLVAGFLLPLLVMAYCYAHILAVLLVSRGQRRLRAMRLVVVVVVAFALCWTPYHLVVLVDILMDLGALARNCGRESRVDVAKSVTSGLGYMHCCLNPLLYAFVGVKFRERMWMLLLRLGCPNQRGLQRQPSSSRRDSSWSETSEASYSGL
- EXPERIMENTAL_DETAILS: Chemotaxis assay ITAC (CXCL11), L1.2-CXCR3 cells
- Format: cell-based
- Set-up: expressed in transfected cells
- CONDITION_INFO: 1 nM CXCL11 (I-TAC), 4 hours
PROPERTY_LABEL: log10 of IC50 (log10 of the value in nM)

COMPOUND: CC(=O)NC(C(=O)Nc1ccc(CN(Cc2ccccn2)S(=O)(=O)c2ccc(Cl)cc2)cc1)c1ccccc1 (stereo not shown)
REPORTED_VALUE: 1.48

COMPOUND: N#Cc1ccc(S(=O)(=O)N(Cc2ccc(C(=O)N[C@@H](Cc3ccccc3)C(N)=O)cc2)Cc2ccccn2)cc1
REPORTED_VALUE: 2.80

COMPOUND: CCOc1ccc(S(=O)(=O)N(Cc2ccc(C(=O)NCC(O)c3ccccc3)cc2)Cc2ccccn2)cc1 (stereo not shown)
REPORTED_VALUE: 1.30

COMPOUND: N#Cc1ccc(S(=O)(=O)N(Cc2ccc(C(=O)NC(CO)C(O)c3ccccc3)cc2)Cc2cccnc2)cc1 (stereo not shown)
REPORTED_VALUE: 3.40

COMPOUND: CCOc1ccc(S(=O)(=O)N(Cc2ccc(C(=O)N[C@H]3[C@@H]4CN(C(C)=O)C[C@@H]43)cc2)Cc2ccccn2)cc1
REPORTED_VALUE: 3.32

COMPOUND: N#Cc1ccc(S(=O)(=O)N(Cc2ccc(C(=O)NCC(O)c3ccccc3)cc2)Cc2cccnc2)cc1 (stereo not shown)
REPORTED_VALUE: 2.11

COMPOUND: O=C(Nc1ccc(CN(Cc2ccccn2)S(=O)(=O)c2ccc(Cl)cc2)cc1)C1(c2ccccc2)CC1
REPORTED_VALUE: 2.23

###

- SYSTEM_UNDER_TEST: CXCR3 (Homo sapiens)
- EXPERIMENTAL_DETAILS: CXCR3 Ca2+ mobilization (FLIPR), stable hCXCR3-CHO cell line, I-TAC stimulated
- Format: cell-based
- Parameters: host or cells: CHO cells stably expressing hCXCR3
- CONDITION_INFO: hCXCR3-CHO cells, I-TAC 100 nM stimulated Ca2+ response; read-out: Ca-ITAC
pIC50: −log10 of the molar value.
pIC50 listing for selected compounds.

COMPOUND: Cc1nc(CN(Cc2ccc(-c3nnn[nH]3)cc2)S(=O)(=O)c2ccc(Cl)cc2)no1
SYSTEM_UNDER_TEST: CXCR3 (Homo sapiens)
pIC50: 4.92
--
COMPOUND: Cc1cccc(S(=O)(=O)N(Cc2ccc(C#N)cc2)Cc2ccccn2)c1
SYSTEM_UNDER_TEST: CXCR3 (Homo sapiens)
pIC50: 5.46
--
COMPOUND: CS(=O)(=O)NC(=O)c1ccc(CN(Cc2ccccn2)S(=O)(=O)c2ccc(Cl)cc2)cc1
SYSTEM_UNDER_TEST: CXCR3 (Homo sapiens)
pIC50: 5.08
--
COMPOUND: CC(C)(C)OC(=O)N1C[C@@H]2[C@H](C1)[C@H]2NC(=O)c1ccc(CN(Cc2ccccc2)S(=O)(=O)c2ccc(Cl)cc2)cc1
SYSTEM_UNDER_TEST: CXCR3 (Homo sapiens)
pIC50: 6.52
--
COMPOUND: O=S(=O)(c1cccc(Oc2ccccc2)c1)N(Cc1ccc(-c2nnn[nH]2)cc1)Cc1ccccn1
SYSTEM_UNDER_TEST: CXCR3 (Homo sapiens)
pIC50: 5.96
--
COMPOUND: O=C(NCC1CC1)c1ccc(CN(Cc2ccccc2F)S(=O)(=O)c2ccc(Cl)cc2)cc1
SYSTEM_UNDER_TEST: CXCR3 (Homo sapiens)
pIC50: 6.00
--
COMPOUND: CCOc1ccc(S(=O)(=O)N(Cc2ccc(C(=O)OC)c(O)c2)Cc2ccccn2)cc1
SYSTEM_UNDER_TEST: CXCR3 (Homo sapiens)
pIC50: 5.22
--
COMPOUND: O=C(NS(=O)(=O)Cc1cccc([N+](=O)[O-])c1)c1ccc(CN(Cc2ccccn2)S(=O)(=O)c2ccc(Cl)cc2)cc1
SYSTEM_UNDER_TEST: CXCR3 (Homo sapiens)
pIC50: 6.76
--
COMPOUND: O=[N+]([O-])c1ccc(S(=O)(=O)N(Cc2ccc(-c3nnn[nH]3)cc2)Cc2ccccn2)cc1
SYSTEM_UNDER_TEST: CXCR3 (Homo sapiens)
pIC50: 5.70
--
COMPOUND: O=S(=O)(c1ccc(Cl)cc1F)N(Cc1ccc(-c2nnn[nH]2)cc1)Cc1ccccn1
SYSTEM_UNDER_TEST: CXCR3 (Homo sapiens)
pIC50: 6.30
--
COMPOUND: O=S(=O)(c1ccc(Cl)cc1)N(Cc1ccc(-c2nnn[nH]2)c(F)c1)Cc1ccccn1
SYSTEM_UNDER_TEST: CXCR3 (Homo sapiens)
pIC50: 5.28
--
COMPOUND: COCCCS(=O)(=O)NC(=O)c1ccc(CN(Cc2ccccn2)S(=O)(=O)c2ccc(Cl)cc2)cc1
SYSTEM_UNDER_TEST: CXCR3 (Homo sapiens)
pIC50: 5.25
--
COMPOUND: N#Cc1ccc(S(=O)(=O)N(Cc2ccc(C(=O)O)c(F)c2)Cc2ccccn2)cc1
SYSTEM_UNDER_TEST: CXCR3 (Homo sapiens)
pIC50: 6.30
--
COMPOUND: COC(=O)C(NC(=O)c1ccc(CN(Cc2ccccn2)S(=O)(=O)c2ccc(Cl)cc2)cc1)c1ccc(F)c(F)c1 (stereo not drawn)
SYSTEM_UNDER_TEST: CXCR3 (Homo sapiens)
pIC50: 6.40
--
COMPOUND: O=C(NC1(c2cccc(Cl)c2)CC1)c1ccc(CN(Cc2ccccn2)S(=O)(=O)c2ccc(Cl)cc2)cc1
SYSTEM_UNDER_TEST: CXCR3 (Homo sapiens)
pIC50: 6.22

###

- SYSTEM_UNDER_TEST: CXCR3 (Homo sapiens, UniProt P49682)
- EXPERIMENTAL_DETAILS: CXCR3 Ca2+ mobilization (FLIPR), stable hCXCR3-CHO cell line, I-TAC stimulated
- Assay type: cell-based
- Set-up: host or cells: CHO cells stably expressing hCXCR3
- CONDITION_INFO: hCXCR3-CHO cells, I-TAC 100 nM stimulated Ca2+ response; read-out: Ca-ITAC
log10 IC50 reference
PROPERTY_LABEL: log10 IC50 (log10 of the value in µM)

MOLECULE: N#Cc1ccc(S(=O)(=O)N(Cc2ccc(NC(=O)Cc3cccc(Cl)c3)cc2)Cc2ccccn2)cc1 [Example 161]
SYSTEM_UNDER_TEST: CXCR3 (Homo sapiens, UniProt P49682)
PROPERTY_LABEL: log10 IC50
REPORTED_VALUE: -1.70

MOLECULE: Cc1ccc(S(=O)(=O)N(Cc2ccc(C#N)cc2)Cc2ccccn2)cc1 [Example 174]
SYSTEM_UNDER_TEST: CXCR3 (Homo sapiens, UniProt P49682)
PROPERTY_LABEL: log10 IC50
REPORTED_VALUE: 0.18

MOLECULE: O=C(NC1(c2ccc(Cl)cc2)CC1)c1ccc(CN(Cc2ccccn2)S(=O)(=O)c2ccc(Cl)cc2)cc1 [Example 125]
SYSTEM_UNDER_TEST: CXCR3 (Homo sapiens, UniProt P49682)
PROPERTY_LABEL: log10 IC50
REPORTED_VALUE: -0.40

MOLECULE: O=S(=O)(c1ccc(Cl)cc1)N(Cc1cccc(-c2nnn[nH]2)c1)Cc1ccccn1 [Example 228]
SYSTEM_UNDER_TEST: CXCR3 (Homo sapiens, UniProt P49682)
PROPERTY_LABEL: log10 IC50
REPORTED_VALUE: 0.45

MOLECULE: COc1ccc(CN(Cc2ccc(C(=O)NCc3ccccc3)cc2)S(=O)(=O)c2ccc(Cl)cc2)cc1 [Example 35]
SYSTEM_UNDER_TEST: CXCR3 (Homo sapiens, UniProt P49682)
PROPERTY_LABEL: log10 IC50
REPORTED_VALUE: 0.78

MOLECULE: O=S(=O)(c1ccc(Cl)cc1)N(Cc1ccc(-c2nnn[nH]2)cc1)Cc1ccc(F)cc1F [Example 60]
SYSTEM_UNDER_TEST: CXCR3 (Homo sapiens, UniProt P49682)
PROPERTY_LABEL: log10 IC50
REPORTED_VALUE: 0.16

MOLECULE: CCOc1ccc(S(=O)(=O)N(Cc2ccc(C(=O)N[C@H]3[C@@H]4CN(C(=O)OC(C)(C)C)C[C@@H]43)cc2)Cc2ccccn2)cc1 [Example 89]
SYSTEM_UNDER_TEST: CXCR3 (Homo sapiens, UniProt P49682)
PROPERTY_LABEL: log10 IC50
REPORTED_VALUE: -1.30

MOLECULE: O=C(NCc1ccccc1)c1ccc(CN(Cc2ccccc2)S(=O)(=O)c2ccc(Cl)nc2)cc1 [Example 36]
SYSTEM_UNDER_TEST: CXCR3 (Homo sapiens, UniProt P49682)
PROPERTY_LABEL: log10 IC50
REPORTED_VALUE: -0.82
